- TARGET_OR_TEST_SYSTEM: human P2X2/3 receptor (Homo sapiens, UniProt P56373+Q9UBL9)
- Construct: expressed in transfected cells; host or cells: CHO-K1
- Sequence (P56373 1-397): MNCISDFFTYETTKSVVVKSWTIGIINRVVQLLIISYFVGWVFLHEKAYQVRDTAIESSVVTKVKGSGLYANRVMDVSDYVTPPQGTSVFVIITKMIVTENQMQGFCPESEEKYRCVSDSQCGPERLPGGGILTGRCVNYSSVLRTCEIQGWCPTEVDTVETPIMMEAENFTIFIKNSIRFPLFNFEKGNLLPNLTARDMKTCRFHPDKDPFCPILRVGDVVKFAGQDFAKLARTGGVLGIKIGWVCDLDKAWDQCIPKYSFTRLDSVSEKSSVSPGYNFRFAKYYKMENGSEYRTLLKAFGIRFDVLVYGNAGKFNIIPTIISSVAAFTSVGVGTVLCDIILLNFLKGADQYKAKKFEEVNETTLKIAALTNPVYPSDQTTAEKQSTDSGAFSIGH
- Sequence (Q9UBL9 1-471): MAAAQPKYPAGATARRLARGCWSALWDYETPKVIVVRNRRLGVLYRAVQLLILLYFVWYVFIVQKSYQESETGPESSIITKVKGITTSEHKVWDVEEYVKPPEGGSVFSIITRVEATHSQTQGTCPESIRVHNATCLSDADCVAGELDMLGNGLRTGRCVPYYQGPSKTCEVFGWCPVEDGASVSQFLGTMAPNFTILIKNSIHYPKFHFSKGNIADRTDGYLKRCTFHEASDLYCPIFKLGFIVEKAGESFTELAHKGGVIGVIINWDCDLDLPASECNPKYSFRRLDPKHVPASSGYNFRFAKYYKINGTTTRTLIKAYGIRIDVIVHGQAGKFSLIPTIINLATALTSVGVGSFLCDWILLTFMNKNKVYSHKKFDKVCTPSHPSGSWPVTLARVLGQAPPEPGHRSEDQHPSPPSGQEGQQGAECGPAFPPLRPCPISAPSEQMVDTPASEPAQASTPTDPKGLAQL
- ASSAY_REMARKS: Calcium fluorescence measurement: human P2X2/3 receptor activity inhibition (CHO-K1 cells, Fluo-8 NoWash, […])
- Assay type: cell-based
- COND: ratio of IC50 of P2X2/3/ P2X3 receptors
- Source text: Determination of human P2X2/3 receptor activity inhibition The assay for the human P2RX2/X3 has been evaluated by the screening instrumentation using the […] as reader and the FLUO8-NoWash dye as fluorescent readout for calcium detection. […] The selectivity is expressed as the ratio of IC50 of P2X2/3/ P2X3 receptors. […]
REPORTED_PROPERTY: Selectivity

Here are 3 molecules together with their reported answers.
MOLECULE	REPORTED_PROPERTY	RESULT
CC(C)C1CN2C(=O)N(CC(=O)Nc3ccc(F)cn3)c3cc(N4CCOCC4)cnc3C2=N1 (stereo not shown)	Selectivity	6.5
CC(C)(C)c1nnc2c3ncc(N4CC[C@@H](O)C4)cc3n(Cc3ccc(Cl)cc3)c(=O)n12	Selectivity	>444
CC(C)(C)Cc1nnc2c3nnc(N4CCOCC4)cc3n(Cc3ccc(Cl)cc3)c(=O)n12	Selectivity	>1500

The molecule listed as "COc1ccc(Cn2c(=O)n3c(C(C)(C)C)nnc3c3ncc(N4CCOCC4)cc32)cc1" shows Selectivity equal to 566

For this molecule ( "CC(=O)N1CCN(c2cnc3c(c2)n(Cc2ccc(Cl)cc2)c(=O)n2c(C(C)(C)C)nnc32)CC1" ), measured Selectivity is >697

The recorded Selectivity for "CN(C)c1nnc2c3nnc(N4CCOCC4)cc3n(Cc3ccc(Cl)cc3)c(=O)n12" is >304

For reference, reported Selectivity for CC(C)C1C(=O)N=C2c3nnc(N4CCOCC4)cc3N(Cc3ccc(Cl)cc3)C(=O)N21 (stereo not shown) stands at >1800

The reported Selectivity of the molecule "COC(C)(C)c1nnc2c3nnc(N4CCOCC4)cc3n(Cc3ccc(Cl)cc3)c(=O)n12" was >1000

Selectivity reported for this molecule COC(C)(C)C1CN2C(=O)N(Cc3ccc(Cl)cc3)c3cc(N4CCOCC4)cnc3C2=N1 (stereo not shown) : 170

# molecule "COc1ccc(Cn2c(=O)n3c(C(C)(C)C)nnc3c3ncc(N4CCN(C(C)=O)CC4)cc32)cc1" ; its Selectivity = >119

Recorded Selectivity (molecule "CC(C)(C)c1nnc2c3nnc(N4CCOCC4)cc3n(Cc3ccc(Cl)cc3)c(=O)n12" ): 582

Selectivity for COc1ccc(CN2C(=O)N3C(=NC(=O)C3C(C)(C)C)c3ncc(N4CCOCC4)cc32)cc1 (stereo not shown) is 249

Memo: "CC(C)(C)c1nnc2c3ncc(N4CCOCC4)cc3n(Cc3ccc(Br)cc3)c(=O)n12" , reported Selectivity: >1000
